Target: T1, RHPN1, Q8TCX5
T1 sequence (Q8TCX5 508-602, limits assumed, looked up): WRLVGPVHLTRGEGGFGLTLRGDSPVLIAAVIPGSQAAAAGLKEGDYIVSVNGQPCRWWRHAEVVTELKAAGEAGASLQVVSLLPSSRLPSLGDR
Test: holdup assay
Set-up: key: below the threshold = too weak to quantify, mostly under pKd 3.1 to 4
Settings: plain residues with an end cap or a label only (N-terminal biotin on a linker: ado-ado)
Field: pKd. Provide a value for each of the binders that follow.
Give bare numbers.

Worked cases, answers included:
binder="LPAHHNATRL [SLC34A1, Q06495]" reportedvalue=3.82
binder="YLEPVLSSEL [ATP2A2, P16615;P16615-3]" reportedvalue=4.24
binder="DDPSTAETVL [ABCA7, Q8IZY2]" reportedvalue=4.92
binder="PDGQCTVTEV [RNF146, Q9NTX7]" reportedvalue=4.68
binder="DDENIRTSDV [PLEKHA2, Q9HB19]" reportedvalue=3.92

Fill in pKd for each of the 5 binders listed.
1. TPPAAKKSRI [BAZ1A, Q9NRL2]
2. SARSRLSSNL [HCN2, Q9UL51]
3. ETQVTAETVI [TMEM225B, P0DP42]
4. SSALYGESDL [ACTN2, P35609]
5. PKRSFIESNV [TANC1, Q9C0D5]

[3.61, 3.92, 4.44, 3.51, 4.38]
